# system_under_test: AgAbp1
# assay: SPOT peptide array binding signal intensity (averaged, normalized) (arbitrary units (background-subtracted, floor 0; scale differs between SH3 domains)); higher = stronger binding of the SH3 domain to the peptide
readout_label: SPOT peptide array binding signal intensity
Give the value as a plain number.

1) IKTRSVPKIPSIESV = 9
2) FYHRPAPKPPVTKKV = 250
3) GKFIPSRPAPKPPSS = 978
4) TTAPALPSLPPPPLL = 0.5
5) NFKRLLPRDPSEKSS = 1

Here is another binder to look at.
Q: Need SPOT peptide array binding signal intensity of PAPPPPPRASRPTPN , thanks.
Result: 7.5
